# Tested on: ragweed (common ragweed, Ambrosia elatior)
# PROCEDURE DETAILS: Test A preemergence, ragweed
# Type: in vivo
# STATED CONDITIONS: 125 g ai/ha, 0 to 100 scale (0 no effect, 100 complete control)
ATTRIBUTE MEASURED: Plant response rating, Ragweed
Output spec: single numeric token, no unit.

Solved entries (count: 4):
O=C1NCC(c2cccc(COc3ccccc3)c2)C1C(=O)Nc1ccccc1Cl (centres unmarked) [Compound 18] | 0
O=C1NCC(c2cccc(Oc3ncc(Cl)cn3)c2)C1C(=O)Nc1ccccc1F (centres unmarked) [Compound 55] | 0
CN1CC(c2cccc(Oc3ccc(C(F)(F)F)cn3)c2)C(C(=O)Nc2ccccc2F)C1=O (single isomer, unassigned) [Compound 43] | 0
O=C1NCC(c2cccc(OCC3CC3)c2)C1C(=O)Nc1cccc(F)c1F (centres unmarked) [Compound 12] | 0

// returns reported Plant response rating, Ragweed for input CC1(COc2cccc(C3CNC(=O)C3C(=O)Nc3ccccc3F)c2)COC1 (centres unmarked) [Compound 14]
0

// returns reported Plant response rating, Ragweed for input O=C1NCC(c2cccc(Cn3cccn3)c2)C1C(=O)Nc1ccccc1F (centres unmarked) [Compound 27]
0

// returns reported Plant response rating, Ragweed for input CON=Cc1cccc(C2CN(C)C(=O)C2C(=O)Nc2ccccc2F)c1 (centres unmarked) [Compound 53]
0

// returns reported Plant response rating, Ragweed for input O=C1NCC(c2cccc(COc3ccccc3)c2)C1C(=O)Nc1cccc(F)c1F (centres unmarked) [Compound 21]
0

###

# System: barnyardgrass (Echinochloa crus-galli)
# PROCEDURE DETAILS: Test A postemergence, barnyardgrass
# Type: in vivo
# STATED CONDITIONS: 500 g ai/ha, visual injury, 0 to 100 scale (0 no effect, 100 complete control), approximately 10 days
ATTRIBUTE MEASURED: Plant response rating, Barnyardgrass
Output spec: single numeric token, no unit.

Solved entries (count: 3):
O=C1NCC(c2cccc(Cn3ccc(C(F)(F)F)n3)c2)C1C(=O)Nc1ccccc1F (stereo not shown) | 30
O=C1NCC(c2cccc(Oc3ccccn3)c2)C1C(=O)Nc1ccc(F)c(F)c1F (stereo not shown) | 60
O=C1NCC(c2cccc(OCC3CC3)c2)C1C(=O)Nc1cccc(F)c1F (stereo not shown) | 90

// returns reported Plant response rating, Barnyardgrass for input O=C1NCC(c2cccc(COc3ccccc3)c2)C1C(=O)Nc1ccc(F)c(F)c1F (stereo not shown)
40

###

# Test system: ragweed (common ragweed, Ambrosia elatior)
# PROCEDURE DETAILS: Test A preemergence, ragweed
# Type: in vivo
# STATED CONDITIONS: 500 g ai/ha, 0 to 100 scale (0 no effect, 100 complete control)
ATTRIBUTE MEASURED: Plant response rating, Ragweed
Output spec: single numeric token, no unit.

Solved entries (count: 5):
O=C1NCC(c2cccc(OCc3ccco3)c2)C1C(=O)Nc1ccccc1F (centres unmarked) | 0
O=C1NCC(c2cccc(Oc3ncc(F)cn3)c2)C1C(=O)Nc1ccccc1F (single isomer, unassigned) | 50
O=C1NCC(c2cccc(Oc3ccccn3)c2)C1C(=O)Nc1ccc(F)c(F)c1F (centres unmarked) | 0
O=C1NCC(c2cccc(OCC3CC3)c2)C1C(=O)Nc1ccccc1F (centres unmarked) | 0
O=C1NCC(c2cccc(Oc3ccccn3)c2)C1C(=O)Nc1cccc(F)c1F (centres unmarked) | 0

// returns reported Plant response rating, Ragweed for input CON=Cc1cccc(C2CN(C)C(=O)C2C(=O)Nc2ccccc2F)c1 (centres unmarked)
0

###

# Test system: corn (Zea mays)
# PROCEDURE DETAILS: Test A postemergence, corn
# Assay type: in vivo
# STATED CONDITIONS: 500 g ai/ha, visual injury, 0 to 100 scale (0 no effect, 100 complete control), approximately 10 days
ATTRIBUTE MEASURED: Plant response rating, Corn
Output spec: single numeric token, no unit.

Solved entries (count: 2):
O=C1NCC(c2cccc(OCc3ccco3)c2)C1C(=O)Nc1ccccc1C(F)(F)F (stereo not drawn) | 0
CN1CC(c2cccc(Oc3ncc(F)cn3)c2)C(C(=O)Nc2cccc(F)c2F)C1=O (single isomer, unassigned) | 100

Would you kindly look at the next entry?
// returns reported Plant response rating, Corn for input CC1(COc2cccc(C3CNC(=O)C3C(=O)Nc3cccc(F)c3F)c2)COC1 (stereo not drawn)
0

###

# Test system: foxtail, giant (Setaria faberii)
# PROCEDURE DETAILS: Test A preemergence, giant foxtail
# Format: in vivo
# STATED CONDITIONS: 125 g ai/ha, 0 to 100 scale (0 no effect, 100 complete control)
Entries annotated with measured Plant response rating, Foxtail, Giant
Output spec: single numeric token, no unit.

O=C1NCC(c2cccc(OCc3ccco3)c2)C1C(=O)Nc1ccccc1C(F)(F)F (centres unmarked) | 0
CN1CC(c2cccc(Oc3ccc(F)cc3)c2)C(C(=O)Nc2cccc(F)c2F)C1=O (single isomer, unassigned) | 90
O=C1NCC(c2cccc(OCC3OCCO3)c2)C1C(=O)Nc1cccc(F)c1F (centres unmarked) | 90
CC1(COc2cccc(C3CNC(=O)C3C(=O)Nc3ccccc3Cl)c2)COC1 (centres unmarked) | 10
O=C1NCC(c2cccc(OCc3ccco3)c2)C1C(=O)Nc1cccc(F)c1F (centres unmarked) | 10

// returns reported Plant response rating, Foxtail, Giant for input CN1CC(c2cccc(Oc3ncc(F)cc3F)c2)C(C(=O)Nc2ccccc2F)C1=O (single isomer, unassigned)
90

// returns reported Plant response rating, Foxtail, Giant for input O=C1NCC(c2cccc(OCC3CC3)c2)C1C(=O)Nc1cccc(F)c1F (centres unmarked)
90

// returns reported Plant response rating, Foxtail, Giant for input O=C1NCC(c2cccc(Cn3cncn3)c2)C1C(=O)Nc1ccccc1F (centres unmarked)
0

###

# Test system: ryegrass, Italian (Lolium multiflorum)
# PROCEDURE DETAILS: Test A postemergence, Italian ryegrass
# Assay type: in vivo
# STATED CONDITIONS: 500 g ai/ha, visual injury, 0 to 100 scale (0 no effect, 100 complete control), approximately 10 days
Entries annotated with measured Plant response rating, Ryegrass, Italian

// returns reported Plant response rating, Ryegrass, Italian for input CN1CC(c2cccc(Oc3ccc(F)cn3)c2)C(C(=O)Nc2ccccc2F)C1=O (single isomer, unassigned)
50

// returns reported Plant response rating, Ryegrass, Italian for input CC1(COc2cccc(C3CNC(=O)C3C(=O)Nc3cccc(F)c3F)c2)COC1 (centres unmarked)
30

// returns reported Plant response rating, Ryegrass, Italian for input O=C1NCC(c2cccc(OCC3OCCO3)c2)C1C(=O)Nc1ccccc1F (centres unmarked)
0

###

# Tested on: barnyardgrass (Echinochloa crus-galli)
# PROCEDURE DETAILS: Test A postemergence, barnyardgrass
# Type: in vivo
# STATED CONDITIONS: 125 g ai/ha, visual injury, 0 to 100 scale (0 no effect, 100 complete control), approximately 10 days
ATTRIBUTE MEASURED: Plant response rating, Barnyardgrass
Output spec: single numeric token, no unit.

O=C1NCC(c2ccccc2Cn2ccc(C(F)(F)F)n2)C1C(=O)Nc1cccc(F)c1F (centres unmarked) | 0
CN1C[C@H](c2cccc(Oc3ccc(F)cn3)c2)[C@@H](C(=O)Nc2ccc(F)c(F)c2F)C1=O | 80
CC1(COc2cccc(C3CNC(=O)C3C(=O)Nc3ccccc3C(F)(F)F)c2)COC1 (centres unmarked) | 0

// returns reported Plant response rating, Barnyardgrass for input O=C1NCC(c2cccc(Cn3cccn3)c2)C1C(=O)Nc1ccccc1F (centres unmarked)
40

// returns reported Plant response rating, Barnyardgrass for input CN1CC(c2cccc(Oc3ccc(C(F)(F)F)cn3)c2)C(C(=O)Nc2cccc(F)c2F)C1=O (single isomer, unassigned)
90

###

# System: foxtail, giant (Setaria faberii)
# PROCEDURE DETAILS: Test A preemergence, giant foxtail
# Type: in vivo
# STATED CONDITIONS: 500 g ai/ha, 0 to 100 scale (0 no effect, 100 complete control)
Entries annotated with measured Plant response rating, Foxtail, Giant
Output spec: single numeric token, no unit.

Solved entries (count: 6):
O=C1NCC(c2cccc(Oc3ccccn3)c2)C1C(=O)Nc1ccccc1F (stereo not shown) | 90
C[Si](C)(C)C#Cc1cccc(C2CNC(=O)C2C(=O)Nc2cccc(F)c2F)c1 (stereo not shown) | 80
O=C1NCC(c2cccc(Oc3ncc(F)cn3)c2)C1C(=O)Nc1ccccc1F (single isomer, unassigned) | 100
O=C1NCC(c2cccc(Cn3ccc(C(F)(F)F)n3)c2)C1C(=O)Nc1ccc(F)c(F)c1F (stereo not shown) | 80
CC1(COc2cccc(C3CNC(=O)C3C(=O)Nc3ccccc3C(F)(F)F)c2)COC1 (stereo not shown) | 40
O=C1NCC(c2cccc(Oc3ccc(C(F)(F)F)cn3)c2)C1C(=O)Nc1ccccc1F (single isomer, unassigned) | 90

Would you kindly look at the next entry?
Please provide the recorded Plant response rating, Foxtail, Giant for CN1CC(c2cccc(Oc3ccc(F)cn3)c2)C(C(=O)Nc2cccc(F)c2F)C1=O (single isomer, unassigned) , tested on foxtail, giant (Setaria faberii).
90
